testDetails: Volume of distribution at steady state in rat at 1 to 2 mg/kg, iv
Assay type: ADME, organism-based
Parameters: dose 1-2 mg/kg, route intravenous
conditionParameters: in vivo, read-out: Vdss
readoutLabel: Vd (L/kg)
State just the number; it will be interpreted in L/kg.

Which Vd value belongs to CCN(C(=O)Cc1ccc(S(C)(=O)=O)cc1)C1CCN(CC[C@@H](c2cc(F)cc(F)c2)N2CCN(S(C)(=O)=O)CC2)CC1 ?
7.7

Which Vd value belongs to CCN(C(=O)Cc1ccc(S(C)(=O)=O)cc1)C1CCN(CC[C@@H](c2cc(F)cc(F)c2)C2CCN(S(C)(=O)=O)CC2)CC1 [AZD5672] ?
5

----------
testDetails: Aqueous solubility of the compound at pH 7.4
Assay type: physicochemical
conditionParameters: buffer
readoutLabel: solubility (µM)
State just the number; it will be interpreted in µM.

Which solubility value belongs to CCN(C(=O)Cc1ccc(S(C)(=O)=O)cc1)C1CCN(CC[C@@H](c2cc(F)cc(F)c2)C2CCN(S(C)(=O)=O)CC2)CC1 [AZD5672] ?
2700

----------
testDetails: Dissociation constant, pKa of the compound
Format: physicochemical
readoutLabel: pKa
// return a plain number; no unit text

Which pKa value belongs to CCN(C(=O)Cc1ccc(S(C)(=O)=O)cc1)C1CCN(CC[C@@H](c2cc(F)cc(F)c2)C2CCN(S(C)(=O)=O)CC2)CC1 [AZD5672] ?
8.4

----------
testDetails: Apparent permeability from apical to basal side of human Caco2 cells at 10 uM
Assay type: ADME, cell-based
conditionParameters: Caco-2
readoutLabel: Papp A→B at 10 µM (×10⁻⁶ cm/s)
State just the number; it will be interpreted in ×10⁻⁶ cm/s.

Which Papp A→B at 10 µM value belongs to CCN(C(=O)Cc1ccc(S(C)(=O)=O)cc1)C1CCN(CC[C@@H](c2cc(F)cc(F)c2)C2CCN(S(C)(=O)=O)CC2)CC1 ?
0.7

----------
testDetails: Fraction unbound in human plasma
Assay type: ADME, cell-free
readoutLabel: fraction unbound
// return a plain number; no unit text

Which fraction unbound value belongs to CCN(C(=O)Cc1ccc(S(C)(=O)=O)cc1)C1CCN(CC[C@@H](c2cc(F)cc(F)c2)C2CCN(S(C)(=O)=O)CC2)CC1 [AZD5672] ?
0.08

----------
testDetails: Half life in rat at 1 to 2 mg/kg, iv
Type: ADME, organism-based
Set-up: dose 1-2 mg/kg, route intravenous
conditionParameters: in vivo
Exercise: state measured half-life for each of the compounds provided.
State just the number; it will be interpreted in h.

Which half-life value belongs to CCN(C(=O)Cc1ccc(S(C)(=O)=O)cc1)C1CCN(CC[C@@H](c2cc(F)cc(F)c2)N2CCN(S(C)(=O)=O)CC2)CC1 ?
2.4

Which half-life value belongs to CCN(C(=O)Cc1ccc(S(C)(=O)=O)cc1)C1CCN(CC[C@@H](c2cc(F)cc(F)c2)C2CCN(S(C)(=O)=O)CC2)CC1 [AZD5672] ?
2.1

----------
targetEntity: Voltage-gated inwardly rectifying potassium channel KCNH2 (Homo sapiens)
Sequence (Q12809 whole entry): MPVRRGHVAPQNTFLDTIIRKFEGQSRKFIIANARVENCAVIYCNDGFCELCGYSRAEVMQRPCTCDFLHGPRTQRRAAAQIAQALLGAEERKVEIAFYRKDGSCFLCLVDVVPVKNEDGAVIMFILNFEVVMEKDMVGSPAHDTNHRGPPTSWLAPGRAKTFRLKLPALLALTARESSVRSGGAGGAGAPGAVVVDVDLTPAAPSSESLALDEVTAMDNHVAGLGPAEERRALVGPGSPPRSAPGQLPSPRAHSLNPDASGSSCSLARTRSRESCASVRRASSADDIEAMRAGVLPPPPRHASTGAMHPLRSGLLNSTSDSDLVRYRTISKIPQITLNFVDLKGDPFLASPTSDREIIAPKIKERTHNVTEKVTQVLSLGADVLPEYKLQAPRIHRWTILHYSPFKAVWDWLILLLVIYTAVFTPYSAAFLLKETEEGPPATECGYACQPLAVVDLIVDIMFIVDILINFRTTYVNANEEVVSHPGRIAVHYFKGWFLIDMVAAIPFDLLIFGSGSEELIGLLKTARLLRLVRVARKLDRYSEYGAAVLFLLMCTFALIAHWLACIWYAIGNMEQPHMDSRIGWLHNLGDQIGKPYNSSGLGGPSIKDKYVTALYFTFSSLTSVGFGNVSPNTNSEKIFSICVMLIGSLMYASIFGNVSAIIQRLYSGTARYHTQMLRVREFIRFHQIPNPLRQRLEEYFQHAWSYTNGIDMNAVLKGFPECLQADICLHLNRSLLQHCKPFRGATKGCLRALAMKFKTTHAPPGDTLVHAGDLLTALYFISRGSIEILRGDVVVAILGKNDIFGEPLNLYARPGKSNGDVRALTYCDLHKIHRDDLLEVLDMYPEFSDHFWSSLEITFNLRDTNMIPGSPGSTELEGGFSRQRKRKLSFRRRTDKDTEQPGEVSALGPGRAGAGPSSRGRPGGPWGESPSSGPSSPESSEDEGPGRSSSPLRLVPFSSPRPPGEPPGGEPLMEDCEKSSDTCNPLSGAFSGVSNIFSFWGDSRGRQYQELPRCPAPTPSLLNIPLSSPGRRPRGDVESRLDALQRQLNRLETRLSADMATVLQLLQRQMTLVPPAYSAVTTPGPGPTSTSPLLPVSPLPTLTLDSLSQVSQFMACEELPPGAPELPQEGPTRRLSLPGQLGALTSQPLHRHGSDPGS
testDetails: Displacement of 3,7-Bis[2-(4-nitro[3,5-3H]phenyl)ethyl]-3,7-diazabicyclo[3.3.1]nonane from human ERG expressed in HEK cells after 3 hrs
Exercise: state measured pIC50 for each of the compounds provided.
Keep it numeric: pIC50 is minus log10 of the concentration in mol/L.

Which pIC50 value belongs to CCN(C(=O)Cc1ccc(S(C)(=O)=O)cc1)C1CCN(CC[C@@H](c2ccccc2)C2CCN(S(C)(=O)=O)CC2)CC1 ?
4.60

Which pIC50 value belongs to CCN(C(=O)Cc1ccc(S(C)(=O)=O)cc1)C1CCN(CC[C@@H](c2ccccc2)N2CCN(S(=O)(=O)C(F)(F)F)CC2)CC1 ?
5.49

Which pIC50 value belongs to CCN(C(=O)Cc1ccc(S(C)(=O)=O)cc1)C1CCN(CC[C@@H](c2ccccc2)N2CCN(S(=O)(=O)CC(F)(F)F)CC2)CC1 ?
5.24

Which pIC50 value belongs to CCN(C(=O)Cc1ccc(S(C)(=O)=O)cc1)C1CCN(CC[C@@H](c2cccc(Cl)c2)C2CCN(S(C)(=O)=O)CC2)CC1 ?
5.10

Which pIC50 value belongs to CCN(C(=O)Cc1ccc(S(C)(=O)=O)cc1)C1CCN(CCC(c2ccccc2)N2CCN(c3cccc(F)c3)CC2)CC1 (racemic) ?
5.49

Which pIC50 value belongs to CCN(C(=O)Cc1ccc(S(C)(=O)=O)cc1)C1CCN(CC[C@@H](c2cccc(C(F)(F)F)c2)C2CCN(S(C)(=O)=O)CC2)CC1 ?
5.10
